From: ChEMBL document CHEMBL4680278

# experimental_system: Histamine H3 receptor (Homo sapiens, UniProt Q9Y5N1)
# Sequence (Q9Y5N1 whole entry): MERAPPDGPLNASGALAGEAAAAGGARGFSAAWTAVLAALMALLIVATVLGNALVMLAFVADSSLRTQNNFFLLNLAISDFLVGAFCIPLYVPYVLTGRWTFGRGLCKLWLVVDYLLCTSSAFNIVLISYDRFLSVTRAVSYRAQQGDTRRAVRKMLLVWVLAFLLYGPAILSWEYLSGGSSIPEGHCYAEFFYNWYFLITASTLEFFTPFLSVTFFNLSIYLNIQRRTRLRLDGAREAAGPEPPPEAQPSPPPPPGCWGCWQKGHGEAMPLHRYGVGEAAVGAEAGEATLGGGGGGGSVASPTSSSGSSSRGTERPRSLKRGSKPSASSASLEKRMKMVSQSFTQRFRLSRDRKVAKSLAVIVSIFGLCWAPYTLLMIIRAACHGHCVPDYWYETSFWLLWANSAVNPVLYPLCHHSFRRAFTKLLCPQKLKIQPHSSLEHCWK
property_name: Ki (µM)
Give the value in µM but do not write µM after it.

Write down the reported Ki (system: Histamine H3 receptor (Homo sapiens, UniProt Q9Y5N1)) of "C=C(C)[C@@H]1CCC(C)=C[C@H]1c1c(O)cc(CCCCC)cc1O"
3.1

----------
# experimental_system: Cytochrome P450 2C11 (Rattus norvegicus)
# Sequence (P08683 whole entry): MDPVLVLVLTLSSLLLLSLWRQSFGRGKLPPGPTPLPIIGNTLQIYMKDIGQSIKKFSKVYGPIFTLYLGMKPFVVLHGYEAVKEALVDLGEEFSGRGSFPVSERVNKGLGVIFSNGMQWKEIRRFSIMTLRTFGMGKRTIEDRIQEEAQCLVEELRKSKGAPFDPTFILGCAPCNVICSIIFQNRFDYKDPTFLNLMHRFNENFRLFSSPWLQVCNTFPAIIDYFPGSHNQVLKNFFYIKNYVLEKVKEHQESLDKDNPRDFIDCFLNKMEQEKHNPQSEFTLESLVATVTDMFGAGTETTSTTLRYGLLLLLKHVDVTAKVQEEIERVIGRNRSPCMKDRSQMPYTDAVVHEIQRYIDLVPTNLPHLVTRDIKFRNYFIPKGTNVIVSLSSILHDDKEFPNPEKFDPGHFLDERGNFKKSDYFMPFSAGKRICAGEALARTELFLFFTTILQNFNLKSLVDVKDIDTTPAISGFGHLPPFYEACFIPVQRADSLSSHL
property_name: pKi
Entry type: numeric. Quantity: pKi, the -log10 of concentration in molar units.

Identify the reported pKi for the following entry. "C=C(C)[C@@H]1CCC(C)=C[C@H]1c1c(O)cc(CCCCC)cc1O"
4.68

----------
# experiment_description: Maximum drug concentration in Swiss mouse brain at 120 mg/kg, po measured up to 24 hrs by HPLC analysis
# Format: ADME, organism-based
# Parameters: route oral, dose 120 mg/kg, time <=24
property_name: Cmax (µM)
Entry rule: numbers only, all in µM.

Respond only with Cmax recorded for "C=C(C)[C@@H]1CCC(C)=C[C@H]1c1c(O)cc(CCCCC)cc1O"
4

----------
# experiment_description: Apparent oral clearance in human at 5 to 20 mg using oromucosal-spray formulation by GC-MS analysis
# Type: ADME
# experimental_conditions: in vivo, dose 5-20 mg
property_name: CL/F (mL/min)
Please respond with the number in mL/min and leave the unit unwritten.

Supply reported CL/F belonging to this molecule: C=C(C)[C@@H]1CCC(C)=C[C@H]1c1c(O)cc(CCCCC)cc1O [CANNABIDIOL]
41700

----------
# experiment_description: Elimination half-life in human at 10 mg using oromucosal-spray formulation measured upto 24 hrs by LC-MS/MS assay
# Type: ADME
# experimental_conditions: in vivo, read-out: beta t1/2 (converted)
property_name: half-life (h)
Just the number in h, nothing appended.

Tell us which half-life value is on record for "C=C(C)[C@@H]1CCC(C)=C[C@H]1c1c(O)cc(CCCCC)cc1O"
2

----------
# experimental_system: G-protein coupled receptor 55 (Homo sapiens)
# Sequence (Q9Y2T6 whole entry): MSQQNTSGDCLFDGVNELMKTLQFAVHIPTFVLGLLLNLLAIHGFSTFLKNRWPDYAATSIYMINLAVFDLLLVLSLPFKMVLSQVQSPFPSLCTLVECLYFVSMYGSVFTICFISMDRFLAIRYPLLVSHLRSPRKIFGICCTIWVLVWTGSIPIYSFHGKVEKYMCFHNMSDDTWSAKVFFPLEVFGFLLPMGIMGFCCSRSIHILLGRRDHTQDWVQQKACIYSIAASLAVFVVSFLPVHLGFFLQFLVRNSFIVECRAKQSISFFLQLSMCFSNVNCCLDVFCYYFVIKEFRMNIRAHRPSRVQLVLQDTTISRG
# experiment_description: Activation of recombinant human GPR55 expressed in HEK293 cells assessed as increase in [35S]-GTPgammaS stimulation incubated for 60 min by scintillation counting method
In this section, each of the compounds is paired with its reported EC50.
Give just the numeric value; nM need not be written.

C=C(C)[C@@H]1CCC(C)=C[C@H]1c1c(O)cc(O)cc1CCCCC :: 2

Continue with the compound presented below.
// Input: "C=C(C)[C@@H]1CCC(C)=C[C@H]1c1c(C)cc(O)cc1O" . Output its EC50 only.
2
